system: Fibroblast; test: Multiplex assay against human fibroblast; assay type: toxicity, cell-based; details: 48 h, 1 µM, compound concentration 1 uM, replicate 2
Flag rule - Population Fragmented Nuclei (%) less than 40% flags condition met; the remaining entries get condition not met.

compound	group
Cc1sc2c(c1C)C(c1ccc(Cl)cc1)=N[C@@H](CC(=O)NCCCCCCCCNC(=O)COc1cccc3c1C(=O)N(C1CCC(=O)NC1=O)C3=O)c1nnc(C)n1-2 (stereo partly specified)	condition not met
Cl.N=C(N)NC(=O)Cc1c(Cl)cccc1Cl [GUANFACINE HYDROCHLORIDE]	condition met
CCCCC(=O)N(Cc1ccc(-c2ccccc2-c2nnn[nH]2)cc1)[C@H](C(=O)O)C(C)C	condition met
O=C1[C@H](Cc2ccc(O)cc2)N2C(=O)CCN(C(=O)NCc3ccccc3)[C@H]2CN1Cc1cccc2ccccc12	condition met
COC[C@@H](c1ccc(C(F)(F)F)cc1)N1CCN(C2(C)CCN(C(=O)c3c(C)ncnc3C)CC2)C[C@@H]1C.O=C(O)/C=C\C(=O)O [VICRIVIROC MALEATE]	condition met

* * *

system: HEK-293T; experiment: Multiplex assay against HEK293T; format: toxicity, cell-based; settings: human, 24 h, 10 µM, compound concentration 10 uM, replicate 2

molecule	Total Cell Count
Cc1cccc(NC(=O)CN2CCC(c3ccccn3)CC2)c1.Cl.Cl	348
O=C(NCCN1CCC(n2c(=O)[nH]c3cc(Cl)ccc32)CC1)c1ccc(F)cc1 [HALOPEMIDE]	361
CCCCC1=NC2(CCCC2)C(=O)N1Cc1ccc(-c2ccccc2-c2nnn[nH]2)cc1	434
CC(C)(C)c1cc(NC(=O)Nc2ccc(-c3cn4c(n3)sc3cc(OCCN5CCOCC5)ccc34)cc2)no1	321
NCCc1cn(S(=O)(=O)c2c(Cl)nc3sccn23)c2ccccc12.O=C(O)C(=O)O	195
Cc1onc(-c2ccccc2Cl)c1C(=O)N(C)c1ccc(Cl)cc1	413
N#Cc1cc(F)cc(-c2nc(-c3ccc(F)cn3)no2)c1	363
O=C1[C@H](Cc2ccc(O)cc2)N2C(=O)CCN(C(=O)NCc3ccccc3)[C@H]2CN1Cc1cccc2ccccc12	249
CC(C)c1noc(N2CCC(COc3ccc(-c4ccc(S(C)(=O)=O)cc4)nc3)CC2)n1	354

* * *

In this section we review reported Population Mitochondria Different-Phenotype (%) values for a set of compounds.
tested on: U2OS; assay: Multiplex assay against U2OS; type: toxicity, cell-based; details: human, 48 h, 1 µM, compound concentration 1 uM, replicate 1
assayReadout: Population Mitochondria Different-Phenotype (%)

compound	experimentalResult
CCCOc1ccc2[nH]cc(C3=CCNCC3)c2n1.Cl	3
N#Cc1cc(F)cc(-c2nc(-c3ccc(F)cn3)no2)c1	0
Cc1cnc(-c2cc(N3CCN(C(=O)CCS(C)(=O)=O)CC3)ncc2Cl)c(C)c1	2
O=C1[C@H](Cc2ccc(O)cc2)N2C(=O)CCN(C(=O)NCc3ccccc3)[C@H]2CN1Cc1cccc2ccccc12	2
O=C(CCCc1ccccc1)Nc1nc2ccccc2c(=O)s1	2
CC(C)c1noc(N2CCC(COc3ccc(-c4ccc(S(C)(=O)=O)cc4)nc3)CC2)n1	3
N#Cc1c(Oc2cccc(OS(=O)(=O)CCCC(F)(F)F)c2)cccc1C(F)(F)F	0
CCCCC1=NC2(CCCC2)C(=O)N1Cc1ccc(-c2ccccc2-c2nnn[nH]2)cc1	2
CCCCC(=O)N(Cc1ccc(-c2ccccc2-c2nnn[nH]2)cc1)[C@H](C(=O)O)C(C)C	3
Cc1onc(-c2ccccc2Cl)c1C(=O)N(C)c1ccc(Cl)cc1	3
Cl.NCCc1ccc(O)c(O)c1 [DOPAMINE HYDROCHLORIDE]	3

Reference source for all entries: ChEMBL document CHEMBL5058577
